Assignment: determine reported IC50 for the given compounds.
System: NO production
Test: NO production-inhibiting effect in RAW264.7 cells (nitrite ion, DAN fluorescence)
Type: cell-based, Mouse
Conditions: Mus musculus; RAW264.7 cells stimulated with LPS 5 ng/ml and interferon gamma 1 U/ml; nitrite ion in culture supernatant; Compounds 1 and 3: minimum and maximum of 7 and 9 tests; read-out: IC50 (μM), NO production inhibition
Record the value in µM, omitting the unit from your answer.

**Q:** Quick check: IC50 of CCOC(=O)C1=CCCCC1S(=O)(=O)Nc1ccc([N+](=O)[O-])cc1 (stereo not shown) ?
**A:** 3.7

**Q:** Quick check: IC50 of CCOC(=O)C1=CCCCC1S(=O)(=O)Nc1cccc(Cl)c1 (stereo not shown) ?
**A:** 0.13

**Q:** Quick check: IC50 of CCOC(=O)C1=CCCCC1S(=O)(=O)Nc1ccccc1CC (stereo not shown) ?
**A:** 0.32

**Q:** Quick check: IC50 of CCOC(=O)C1=CCCCC1S(=O)(=O)Nc1ccc(Cl)cc1 (stereo not shown) ?
**A:** 0.54

Data origin, for the record: patent US7960416B2
